ASSAY PROTOCOL: In vivo exposure (brain disposition) after intravenous bolus injection
Parameters: species or system male Sprague Dawley rats
TEST PARAMETERS: male, Sprague-Dawley, brain; rat, 2 mg/kg intravenous bolus, 30 min post dose; read-out: Total Brain concentration (ng/mL) 30 min post dose
REPORTED PROPERTY: concentration at 30 min (ng/mL)
Response body: numeric value in ng/mL, unit text excluded.

Query: Consider the compound Cc1ccnc2cc(C(=O)NC[C@@H](N)C(=O)O)sc12 and give its measured concentration at 30 min.
Reply: 8.4

---

ASSAY PROTOCOL: In vivo exposure (brain disposition) after intravenous bolus injection
Design: species or system male Sprague Dawley rats
TEST PARAMETERS: male, Sprague-Dawley, plasma; rat, 2 mg/kg intravenous bolus, 30 min post dose; read-out: Total Plasma concentration (ng/mL) 30 min post dose
Procedure: Brain disposition of test compound was evaluated in male Sprague Dawley rats (standard body weight range). […] Seven calibration standards and three QC samples were prepared in plasma and brain homogenate, respectively, in the concentration range 10-10000 ng/mL. […] Study samples with expected concentration above upper limit of quantification were diluted with blank matrix. […]
REPORTED PROPERTY: concentration at 30 min (ng/mL)
Number in ng/mL, nothing else.

Query: GET /values?readout=concentration at 30 min&item= Cc1ccnc2cc(C(=O)NC[C@@H](N)C(=O)O)sc12 [Compound 1e]
Reply: 270
